ASSAY_NOTES: yeast display, Sf9 membrane polyspecificity reagent, FACS + sequencing; frameworks hold sequencing errors
PARAMETER: polyreactivity (PSR sort gate)

QVQLVESGGGLVQAGGSLRLSCAASGFIFYKYAMGWYRQAPGKERELVAAITASGGSTYYADSVKGRFTISRDNEKITVYLQMNSLKPEDTEVYFCAASRLFGFDYWGQGTQVTVSS; high polyreactivity
QVQLVESGGGLVQEGGSLRLSWAASGSTFARYAMGWYRQAPGKERELVAAISRRGGSTYYADSVKGRFTISRDKAKNTVYVQMHRLKPEDTGVSYCAARYGIISSFEYDYWGQGTQVTVSS; high polyreactivity
QVQLVESGGGLVQAGGSLRLSCAASGRTFGVYVMGWYRQAPGKERELVAVITISGGSTYYADSVKGRFTISRDNAKNTVYLQMNSLKPEDTAVYYCAARTYYGYDYWGQGTQVTVSS; high polyreactivity

====

ASSAY_NOTES: yeast display, Sf9 membrane polyspecificity reagent, FACS + sequencing; frameworks hold sequencing errors
PARAMETER: polyreactivity (PSR sort gate)

QVQLVESGGGLVQAGGSLRLSCAASGSNFSYYTMGWYRQAPGKERELVAAISTSGGSTYYADSVKGRFTISRDNAKNTVYLQMNSLKPEDTAVYYCAARYGRYYKYNYWGQGTQVTVSS; high polyreactivity
QVQLVESGGGLVQAGGSLRLSCAASGRTFHRYAMGWYRQAPVKEREVLAAITSSGGSTNYADSVKVRFTISRDNAKNTVYVQMNSLQPEDTAVYYCATDRYRYTSHPWSRGFDYWGQGTQVTVSS; low polyreactivity
QVQLVESGGGLVQAGGSLRLSCAASGIIFSDYAMGWYRQAPGKERELVAAISRNGGSTYYADSVKGRFTISRDNAKNTVYLQMNSLKPEDTAVYYCAATRRYRYNWGQGTQVTVSS; high polyreactivity
QVQLVESGGGLVQAGGSLRLSCAASGFTFYRYAMGWYRQAPGKERELVAAITWSGGSTYYADSVKGRFTISRDNAKNTVYLQMNSLKPVDTAVYYCAADIYDGGFDYWGQGTQVTVSS; low polyreactivity

Read the next record carefully.
Query (sequence): `QVQLVESGGGLVQAGGSLRLSCAASGRIFVKNAMGWYRQAPGKERELVATISSGGNTNYADSVKGRFTISRDNAKNTVYLQLNSLKPEDTAVYYCAAVWDLGDYELPYDYWGQGTQVTVSS` ; field requested: polyreactivity (PSR sort gate)
low polyreactivity

====

ASSAY_NOTES: yeast display, Sf9 membrane polyspecificity reagent, FACS + sequencing; frameworks hold sequencing errors
PARAMETER: polyreactivity (PSR sort gate)

// below: answered sequences
QVQLVESGGGLVQAGGSLRLSCAASGSIFYRYSMGWYRQAPGKEREFVAAITWSGGSTYYADSVKGRFTISRDNAKNTVYLQMNSLKPEDTAVYYCAKDSGSYRVGIYEPFPYGYWGQGTQVTVSS; low polyreactivity
QVQLVESGGRLVQAGGSLRLSCAASGYIFSRNAMGSYRQAPGKERELVATISRGGSTYYGDSVKGRFTISRDNDKNTVYLQMNSLKPEDTAVYFCAATVVYWRSKSSVRRYDYWGQGTQVTVSS; high polyreactivity
QVQLVESGGGLVQAGGSLRLSCAASGRIFRGNGMGWYRQAPGKERELVAAINYSGASTYYADSVKGRFTISRDNAKNTVYLQMNSLKPEDTAVYYCARAWFYRGGEGWLESYIVSGDYWGQGTQVTVSS; low polyreactivity
QVQLEDSGGGLVQAGGRLRLSCAASGSIFFSYAMGWYRQAPGTERELVAGINWSGGSTYADCVKGRFTISRDNAKNTVYLQMNSQKPEDTAVYYCAAKYYSERSRYHYWGLGTQVTVSS; low polyreactivity
QVQLVESGGGLVQAGGSLRLSCAASGRIFKVYAMGWYRQAPGKERELVATISRGGSTYYADSVKGRFTISRDNAKNTVYLQMNSLKPEDTAVYYCAKQRERYYWFGAWSYDYWGQGTQVTVSS; low polyreactivity
QVQLVESGGGLVQAAGSLRLSCAASGRTFHWYVMGWYRQAPGKESELDAAITRRGGSTYYADSVKGRFTISRDNAKNTVYLQLNSLKPEDTAVYYCAAVGNRRYYFGYDYWGQGTQVTVSS; high polyreactivity

// batch mode: one polyreactivity (PSR sort gate) value per listed entry
1. QVQLVESGGGLVQAGVSLLLSCAASGSTLYYNAMGWYRQAPGKERELVAAITSGGSTSYADSVKGRFTISRDNAKHTVYLQRNSLKPEDTAVYYCAAVFYRRFDYWGQGTQVTVSS
2. QVQLVESGGGLVQAGGSLRLSCAASGSIFGLNAMGWYRQAPGKERELVAAISGGSTNYADSVKGRFTISRDNAKNTVYLQMNSLKPEDTAVYYCAARARRRYYYWGQGTQVTVSS
3. QVQLVESGGGLVQAGGSLRLSCAASGRIYRYAMGWYRQAPWKERELVASISRRGGSTYYADSVKGRFTISRDNAKNTVYVQMNSLKPEDTALYSCNAYGYSFCYDYWGHGTQVTVSS
4. QVQLVESGGGLVQAGGSLRLSCAASGRTFPGNAMGWYRQAPGKERELVATITWSSGRTHYADSVKGRFTISRDNAKNTVYLQMNSLKPEDTAVYYCAAKLIVAVGGFYYWGQGTQVTVSS
5. QVQLVESGGGIVQAGGSLRLSCAASGSTFGAYPMAWYRQAPGTERELVAVITRTGSTYADSVKGRFTISRDNAKNTVYLQMNSLKPVDTAVYYCNADYYVSRLYDYQVYSYRYDYWGQGTKVTVSS
6. QVQLVESGGVLVQAGGSLRLSCAASGSIFVPYAMGWYRQAPGKERELVAAISSGGSTNYADSVKGRFTISRDNAKNTVYLLMNSLKPEDTAVYYCAADRKYFYLWLDQEHRYYWGQGYQVTVSS
7. QVQLVESGGGLVQAGGSLRLSCAASGFNFNNNGMGWYRQAPGKERELDAAISYSGGRTYYADSVKGRFTISRDNAKNTLYLQMNSLKPEETAVYYFADNSYYSRYDYWGQGTQVTVSS

["low polyreactivity", "high polyreactivity", "high polyreactivity", "low polyreactivity", "high polyreactivity", "low polyreactivity", "low polyreactivity"]

Here are 6 sequences. What values of polyreactivity (PSR sort gate) were reported for them?
1. QVQLVESGGGLVQAGGSLRLSCDASGRTFGHKAMAWYRQAPGKEREFVAAITYSCVRTFYADSVKGRFTISRDNAKNTVYLQMNSLKQEDTAVYYCATDWRRDYDFWGQGTQVTVSS
2. QVQLVESGGGLVQAGGSLRLSCAASGFTFTKYAMGWYIQATGKERELVAAISRSGSSTYYADSVKGRFTISRDNAKNTVYLQMNSLKPEDTAVYYCAADNGYGDYYYWGQGTQVTVSS
3. QVQHVESGGGLVQAGGSLRLSCAASGRIFGTYAMGWYRQAPGKERELVAAISWSGGRTYYADSVKGRFTISRDNAKNTVYLQMNSLKPEHTAVYYCAARGVPRDGRHHYRYDYWGQGSQVTVSS
4. QVQLVESGGGLVQAGGSLRLSCAASGRTFYRNTMGWYRQAPGKEREFVAAISATAGRTYYADSVKGRFTISRDNAKNTVYLQMNSLKPEDTAVYYCAAVPLRNRWPNSWPALDYWGQGTQVTVSS
5. QVQLVESGGGLVQAGGSLRLSCSASGSTFRIYAMGWYRQAPGKERELVAAISWSSGSTYYADSVKGRFTISRDNAKKSVYLQMNSLKPEDTAVYYCATYARRSGYYYWGQGSQVTVSS
6. QVQLVESGGGLVQAGGSRRLSCAASGYSLRIYAMGWYRQAPGTEMELVAAISRSGGRTFYADSVKGRFTISRDNAKNTVFLQMNSLKQEDTAVYYCAADPRCYDTGRMDYWGQGTQVTVSS

1: low polyreactivity; 2: high polyreactivity; 3: high polyreactivity; 4: high polyreactivity; 5: high polyreactivity; 6: high polyreactivity

Each sequence below has a reported value. Please supply its polyreactivity (PSR sort gate).
1. QVQLVESGGGLVQAGGSLRLSCAASGSTFVSNTMGWYRQAPGKERELVAAITWTGGRTYYADSVKGRFTISRDNAKNTVYLQMNSLKPEDTAVYYCAAVGTRKMYYWGQGTQVTVSS
2. QVQLVESGGGLVQAGGSLRLSCAASGSIFYYYVMGWYRQAPGKERELVAAITYSGGRTYYADSVKGRFTISRDNAKYTVYLQMNSLKPEDTAVYYCNVVIYYFNSRSVFYDYDYWGQGTQVTVSS

1. high polyreactivity
2. high polyreactivity

These measurements were taken from the nanobody polyreactivity screen of Harvey et al. (2022).
